# System: TMPRSS2-ERG fusion
# experiment.notes: RT-PCR detection of induced endogenous TMPRSS2-ERG fusion transcript in LNCaP cells expressing input RNA
# measurement.parameters: fusion gene partners TMPRSS2-ERG, LNCaP

molecule	Cell line(s) identified
Antisense-D1: input RNA, SEQ ID NO: 21 (nucleic acid) antisense: TGTGCTCGCTTCGGCAGCACATATACTAACATTGGAACGATCCTGCAGGAGAGACAGAGAGAGAGAGGCTGGTAGAGGGAAGAGACAGAAGAAAGATGAAGGGATAAGTGTCCAGAATCCCTGAGCGCTCGACCCTCGGGCGCACTCACCTGCCGCGCCGCGCTCCTCACACCCG	LNCaP
Antisense-2: input RNA, SEQ ID NO: 5 (nucleic acid) antisense: TGTGCTCGCTTCGGCAGCACATATACTAACATTGGAACGATCCTGCAGCTTGAGCCATTCACCTGGCTAGGGTTACATTCCATATTGATGGTGACCCTGGCTGGGGGTTGAGACAGCCAATCCTGCTGAGGGACGCGTGGGCTCATCTTGGAAGTCTGTCCATAGTCGCTGGAGGAGGACGCGGTCATCTCTGTCTTAGCCAGGTGTGGCGTTCCGTAGGCACACTCAAACAACGACTGGTCCTCACTCACAACTGATAAGGCTTCCTGCCGCGCTCCAGGCGGCGCTCCCCGCCCCTCGCCCTCCGCCTCCGCCTCCGCCTCCTGCTTAGCTCGCGCCTACTC	LNCaP
